EXPERIMENT_SUMMARY: TOR pathway GLN3 branch reporter MEP2-GFP changes – S. cerevisiae, multiplex flow cytometry, primary screen (AID 1867);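 note: median GFP channel fluorescence of barcode-gated MEP2-GFP cells measured by flow cytometry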
CONDITION_PARAMETERS: S. cerevisiae MEP2-GFP strain, 3 h, at 10 µM, stronger effect = higher value, 100% means same as DMSO wells
Results filed as inconclusive are left out.
Entries annotated with measured GFP response vs DMSO
The response must be a number in % with no trailing unit.

C=C(C)[C@@H]1CC=C(CN2CCC(N3CCC(C(=O)N4CCCC4)CC3)CC2)CC1: 91.9
CC1CCN(C(=O)Oc2ccccc2)CC1: 111
O=C(Nc1nc2ccccc2s1)c1ccc(F)cc1: 106
O=C(O)Cc1ccc(O)c(F)c1: 135
CC(=O)OCC(=O)[C@@]1(O)[C@H](C)C[C@H]2[C@@H]3CCC4=CC(=O)C=C[C@]4(C)[C@@]3(F)[C@@H](O)C[C@@]21C: 119

Task: Read the entry `O=C(N/N=C\c1cc([N+](=O)[O-])ccc1N1CCOCC1)c1ccccn1` and write its reported GFP response vs DMSO.
Output: 102

Task: Read the entry `CCOC(=O)n1c(=O)oc2ccccc21` and write its reported GFP response vs DMSO.
Output: 104

Task: Read the entry `CN(C)c1ccc(Nc2c3c4c(cccc4n(C)c2=O)C(=O)c2ccccc2-3)cc1` and write its reported GFP response vs DMSO.
Output: 108

Task: Read the entry `O=C(CN1CCN(Cc2ccccc2)CC1)N1CCCc2c1c(=O)oc1ccc(O)cc21` and write its reported GFP response vs DMSO.
Output: 127

Task: Read the entry `CN1CCN(CCCN2c3ccccc3Sc3ccc(Cl)cc32)CC1` and write its reported GFP response vs DMSO.
Output: 102

Task: Read the entry CCOC(=O)N1c2ccccc2C=CC1OCC (centres undefined) and write its reported GFP response vs DMSO.
Output: 97.7

Task: Read the entry `N=c1c[n+](N2CCOCC2)[n-]o1` and write its reported GFP response vs DMSO.
Output: 106

Task: Read the entry `O=C(NCCc1c[nH]c2ccccc12)OCCSS(=O)(=O)O` and write its reported GFP response vs DMSO.
Output: 101

Task: Read the entry CC(CCCC(C)(C)O)NC(=O)c1ccc(OC2CCN(C(=O)C3CC3)CC2)cc1 (centres undefined) and write its reported GFP response vs DMSO.
Output: 96.3

Task: Read the entry CCN(CCCCOC(=O)c1ccc(OC)c(OC)c1)C(C)Cc1ccc(OC)cc1 (centres undefined) and write its reported GFP response vs DMSO.
Output: 99.6

Task: Read the entry `O=C(NCCO)c1ccc(Cl)c(Cl)c1` and write its reported GFP response vs DMSO.
Output: 104

Task: Read the entry `O=C(/C=C/Sc1ccccc1)c1ccccc1` and write its reported GFP response vs DMSO.
Output: 101

Task: Read the entry `CC(C)(Oc1ccc(CCNC(=O)c2ccc(Cl)cc2)cc1)C(=O)O` and write its reported GFP response vs DMSO.
Output: 107

Task: Read the entry COc1ccc2[nH]cc(C3N4CC5(C)CN3CC(C)(C4)C5=O)c2c1 (centres undefined) and write its reported GFP response vs DMSO.
Output: 103

Task: Read the entry CCOC(=O)C1NN=C(C(=O)c2ccccc2)C1c1ccc(Cl)cc1 (centres undefined) and write its reported GFP response vs DMSO.
Output: 96.6

Task: Read the entry `COc1cc2[nH]c3c(=O)n(CCN4CCOCC4)cnc3c2cc1OC` and write its reported GFP response vs DMSO.
Output: 96.3

Task: Read the entry `CCOCCCNCc1cn(-c2ccc(F)cc2F)nc1-c1ccccc1C` and write its reported GFP response vs DMSO.
Output: 98.3

Task: Read the entry `C=CCNc1nc2c(c(=O)n(C)c(=O)n2C)n1CC(=C)C` and write its reported GFP response vs DMSO.
Output: 101

Task: Read the entry `COC(=O)c1[nH]c(=O)c2ccccc2c1O` and write its reported GFP response vs DMSO.
Output: 95.2

Data provenance: PubChem BioAssay
